We begin with a simple list: items and their reported kinase still bound, per cent of control.
- test-target: MAPK8 (human) (UniProt P45983)
- Sequence (P45983 whole entry, looked up): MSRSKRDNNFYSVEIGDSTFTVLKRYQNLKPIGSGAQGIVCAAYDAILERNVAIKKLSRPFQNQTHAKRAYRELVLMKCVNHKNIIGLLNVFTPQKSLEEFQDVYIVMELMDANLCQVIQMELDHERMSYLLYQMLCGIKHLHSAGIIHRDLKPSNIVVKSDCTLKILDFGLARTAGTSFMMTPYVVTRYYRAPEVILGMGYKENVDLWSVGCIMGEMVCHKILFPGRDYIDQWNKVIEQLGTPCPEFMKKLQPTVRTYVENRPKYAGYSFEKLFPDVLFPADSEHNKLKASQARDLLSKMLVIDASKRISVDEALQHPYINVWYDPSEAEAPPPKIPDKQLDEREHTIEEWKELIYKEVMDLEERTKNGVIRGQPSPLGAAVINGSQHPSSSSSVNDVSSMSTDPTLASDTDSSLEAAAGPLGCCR
- experiment-notes: KINOMEscan competition binding
- condition-info: compound 10.0 µM

Here are 3 molecules together with their reported answers.
>  <smiles-structure>
COc1cc(N2CCC(N3CCN(C)CC3)CC2)ccc1Nc1ncc(Cl)c(Nc2ccccc2S(=O)(=O)C(C)C)n1

>  <test-target>
MAPK8 (human) (UniProt P45983)

>  <kinase still bound, per cent of control>
5.2%

$$$$
>  <smiles-structure>
CCN1CCN(Cc2ccc(NC(=O)c3ccc(C)c(/C=C/c4cnc(Nc5cc(N6CCNCC6)nc(C)n5)cn4)c3)cc2C(F)(F)F)CC1

>  <test-target>
MAPK8 (human) (UniProt P45983)

>  <kinase still bound, per cent of control>
24%

$$$$
>  <smiles-structure>
CCN1CCN(Cc2ccc(NC(=O)c3ccc(C)c(Oc4ccnc5[nH]ccc45)c3)cc2C(F)(F)F)CC1

>  <test-target>
MAPK8 (human) (UniProt P45983)

>  <kinase still bound, per cent of control>
0%

$$$$

Let's switch to this molecule now.
Can you look up the measured kinase still bound, per cent of control of CCOc1cc(N2CCC(N3CCCCC3)CC2)ccc1Nc1nc(Nc2ccccc2S(=O)(=O)C(C)C)c2cn[nH]c2n1 for me?
4.3%

// data source = the kinase profiling compilation of Christmann-Franck et al. (2016)
